Task for the reader: assign each of the following molecules its reported TGI.
System: EKVX NSCLC
Assay: NCI tumour cell line growth inhibition, 48 h

Ask: API: value(readout=TGI, system=EKVX NSCLC) for record CCOC(=O)c1[nH]c2c(c1C)-c1[nH]c(=O)c(S(=O)(=O)c3ccccc3)cc1SC2
Result: > 100 µM

Ask: Notebook entry, EKVX NSCLC assay: TGI of CC(C)OP(=O)(CP(=O)(OC(C)C)OC(C)C)OC(C)C.[CH3][Sn]([Br])([Br])[Br] = ?
Result: > 100 µM

Ask: Form field: TGI recorded for O=C(OCc1ccccc1CN1CCOCC1)c1ccc(Br)cc1 with EKVX NSCLC (enter value)
Result: > 100 µM

Ask: Param readout = TGI; param system = EKVX NSCLC; param query = Cc1ccc(S(=O)(=O)Nn2c(-c3ccccc3)c(C#N)c(-c3ccc([N+](=O)[O-])cc3)c(C#N)c2=O)cc1 ; response: value
Result: > 100 µM

Ask: I'm curious: which TGI was measured for c1ccc2c(c1)nc(NCCN1CCNCC1)c1c3ccccc3[nH]c21 tested on EKVX NSCLC?
Result: 4.38 µM

Ask: Give TGI (EKVX NSCLC) of the following molecule: O=C1c2cccnc2C(=O)c2c1c(C(=O)OCCCN1CCOCC1)c1ccccn21
Result: 1.75 µM

Ask: Request body: readout TGI, system EKVX NSCLC, query O=C(C[C@@H]1NCCC[C@H]1O)Cn1cnc2cc(Br)c(Cl)cc2c1=O . Return the value.
Result: 0.803 µM

Ask: Please provide the recorded TGI for COc1ccc(C2CC(c3c(C)nn(-c4ccccc4)c3-c3ccc(C)cc3O)=NN2c2ccccc2)cc1 (stereo not drawn) , tested on EKVX NSCLC.
Result: > 100 µM

Ask: What is its TGI for EKVX NSCLC? Entry: CC(=O)NC1C(OCc2ccccc2)OC(COC(=O)CCCCCCCCCCNC(=O)c2cccc3c(=O)c4ccccc4[nH]c23)C(O)C1OC(C)C(=O)NC(C)C(=O)NC(CCC(N)=O)C(N)=O (stereo not drawn)
Result: > 100 µM

Ask: State its TGI on EKVX NSCLC: CCCCCCCCCCCCC(=O)NCC(=O)NC(Cc1ccccc1)C(=O)Oc1ccc([N+](=O)[O-])cc1 (stereo not drawn)
Result: > 100 µM

Ask: // fetch EKVX NSCLC TGI for COc1ccc2c(c1O)[C@@]13C=C(O)C(=O)C=C1[C@@H](C2)N(C)CC3
Result: > 100 µM

Ask: Any idea what TGI came out for CCOC(=O)/C=C1\Nc2ccccc2C(c2ccccc2)=NC1OC(C)=O (stereo not drawn) on EKVX NSCLC?
Result: > 100 µM

Ask: Reported TGI for EKVX NSCLC, given CC1CN=C(c2cccc(OCc3ccc(COc4cccc(C5=NCC(C)N5)c4)cc3)c2)N1 (stereo not drawn) ?
Result: > 100 µM

----------
Test system: IGROV1 ovarian
Assay: NCI tumour cell line growth inhibition, 48 h
readout: TGI

Ask: Report TGI for C[C@@H](NC(=O)Cc1cc(F)cc(F)c1)C(=O)N[C@@]1(C)N=C(c2ccccc2)c2ccccc2N(C)C1=O please.
Result: > 100 µM

Ask: Param item = O=C(Nc1cccc2nsnc12)c1cc2c(cc1Cl)Sc1nccn1S2(=O)=O ; retrieve measured TGI.
Result: 46.6 µM

Ask: # query: TGI of entry COc1cc[nH]c1/C=C1\C(=O)Nc2ccc(F)c(C#CC3(O)CCOCC3)c21
Result: > 7.18 µM

Ask: Quick one: TGI of CC(=O)[CH-]C(=O)c1ccccc1.CC(=O)[CH-]C(=O)c1ccccc1.[O]=[U+2]=[O] ?
Result: > 100 µM

Ask: # query: TGI of entry CCOP(=O)(OCC)/C(C#N)=C\c1cccc2ccccc12
Result: > 100 µM

Ask: Quick one: TGI for O=C1OCC(C(=O)c2cccc(O)c2)C1=O (stereo not given) ?
Result: > 100 µM

Ask: Which TGI value is on record for Oc1c2cccc1Cc1cccc3c1OCCOCCOCCOCCOc1c(cccc1Cc1cccc(c1O)C3)C2 ?
Result: > 100 µM

Ask: I have this compound here, COc1ccc(C2CC(c3c(C)nn(-c4ccccc4)c3-c3ccc(C)cc3O)=NN2c2ccccc2)cc1 (stereo not given) , and I need its recorded TGI.
Result: > 100 µM

Ask: If you can, please state the reported TGI value of O=C1[C@H]2C(c3ccccc3)=NN(C(=O)c3ccccc3)[C@H]2C(=O)N1c1ccccc1 .
Result: > 100 µM

Ask: Any idea what TGI was measured for Cc1ccc(NCSc2ccc(Cl)cc2)cc1 ?
Result: > 100 µM

Ask: Entry O=C1CCC2(CC1)Cc1ccccc1C2O (stereo not given) : reported TGI = ?
Result: > 100 µM

Ask: Item COc1cccc(-c2nn(-c3ccccc3)cc2-c2ccnc(NCCNC(=O)Nc3ccc(Cl)c(Cl)c3)c2)c1 has what recorded TGI?
Result: 15.6 µM

Ask: Value lookup for TGI; key = Oc1cc2cc(-c3ccccc3)[nH]c2c2ccccc12
Result: > 100 µM

Ask: Record request: TGI value, item COC(=O)/C(C#N)=C1\N=NNN1CCCN1CCOCC1
Result: > 100 µM

Ask: TGI lookup needed for CCOC(=O)c1[nH]c2c(c1C)-c1[nH]c(=O)c(S(=O)(=O)c3ccccc3)cc1SC2 , thanks.
Result: > 100 µM

Ask: Endpoint output: TGI of c1ccc2c(c1)nc(NCCN1CCNCC1)c1c3ccccc3[nH]c21 . Value?
Result: 8.18 µM

Ask: Need TGI of COc1ccc2cccc(C(=N)c3ccc(C)c4c3CCC4)c2c1 , thanks.
Result: 19.2 µM

Ask: Quick check: TGI of O=c1c(Cc2ccc(Cl)cc2)nnc2sc(-c3ccc([N+](=O)[O-])cc3)nn12 ?
Result: > 100 µM

Ask: TGI for COC(=O)Cc1c(C2=Nc3ccccc3C2(O)CC(=O)OC)[nH]c2ccccc12 (stereo not given) ?
Result: > 100 µM

Ask: Given the entry COc1ccc(CNc2nc(NCc3ccc(OC)cc3)nc(NC3CCCCC3)n2)cc1 , report its measured TGI.
Result: 6.22 µM

Ask: Request the reported TGI associated with CCCC/C(=N\N=C(N)N)c1ccc(F)cc1
Result: 20.9 µM

Ask: # input compound: CC1(C)CC(=O)C(/C=N/c2nc(-c3ccc(Br)cc3)cs2)=C(O)C1 ; wanted: its TGI
Result: > 100 µM

Ask: Entry COC(=O)/C(=N\NC(=O)c1ccccc1O)C(C#N)c1ccc(Cl)cc1 (stereo not given) : reported TGI = ?
Result: > 100 µM

Ask: Param item = O=C1c2cc3c(cc2CC12Cc1cc4c(cc1C2)CCC4)CCC3 ; retrieve measured TGI.
Result: > 100 µM

Ask: Bench note: what TGI did O=C(Cc1nc2ccc(C(=O)c3ccccc3)cc2[nH]c1=O)C(=O)Nc1ccccc1[N+](=O)[O-] show?
Result: > 100 µM

Ask: Which TGI value is on record for CC(=O)N(C(C)=O)n1c(Cc2ccc(Cl)cc2)nn(C(C)=O)c1=O ?
Result: > 100 µM

Ask: Reported TGI for COc1ccccc1Cn1cc2c(c1)-c1oncc1CC2 : what is it?
Result: > 78.7 µM

Ask: Bench note: what TGI did CO[C@H]1C=C[C@]23c4cc5c(cc4CN(CC2O)[C@@H]3C1)OCO5 (stereo not given in full) show?
Result: 26 µM

Ask: Which value of TGI has been reported for COc1cc(C(c2cc3c(cc2O)OCO3)N2CCCC2)cc(OC)c1OC (stereo not given) in the records?
Result: 27.8 µM

Ask: If you can, please state the reported TGI value of CN(C)CCCn1c2ccccc2c2cnccc21 .
Result: > 100 µM

Ask: GET /values?readout=TGI&item= CC(CS(=O)(=O)Cc1ccccc1)C(N)=O (stereo not given)
Result: > 100 µM

Ask: State the recorded TGI for this entry: CCOC(=O)c1cc(-c2ccc(OC)c(OC)c2)c[nH]1
Result: > 10 µM

Ask: Please report the recorded TGI for N#Cc1c(=O)c2cccnc2n2c1[nH]c1ccccc12 .
Result: > 100 µM

Ask: Any idea what its TGI is? The compound is Cc1nnc2n1N=C(CC(=O)c1ccc(O)cc1O)CN2N
Result: > 100 µM

Ask: Reported TGI, compound CCCCc1ccc2[n+](c1)C(C(=O)OCC)=PC2 (stereo not given) : ____
Result: > 100 µM
